Target: human recombinant HDAC6 (Homo sapiens, UniProt Q9UBN7)
Construct: purchased Calbiochem Inc. 382180
Sequence (Q9UBN7 1-1215): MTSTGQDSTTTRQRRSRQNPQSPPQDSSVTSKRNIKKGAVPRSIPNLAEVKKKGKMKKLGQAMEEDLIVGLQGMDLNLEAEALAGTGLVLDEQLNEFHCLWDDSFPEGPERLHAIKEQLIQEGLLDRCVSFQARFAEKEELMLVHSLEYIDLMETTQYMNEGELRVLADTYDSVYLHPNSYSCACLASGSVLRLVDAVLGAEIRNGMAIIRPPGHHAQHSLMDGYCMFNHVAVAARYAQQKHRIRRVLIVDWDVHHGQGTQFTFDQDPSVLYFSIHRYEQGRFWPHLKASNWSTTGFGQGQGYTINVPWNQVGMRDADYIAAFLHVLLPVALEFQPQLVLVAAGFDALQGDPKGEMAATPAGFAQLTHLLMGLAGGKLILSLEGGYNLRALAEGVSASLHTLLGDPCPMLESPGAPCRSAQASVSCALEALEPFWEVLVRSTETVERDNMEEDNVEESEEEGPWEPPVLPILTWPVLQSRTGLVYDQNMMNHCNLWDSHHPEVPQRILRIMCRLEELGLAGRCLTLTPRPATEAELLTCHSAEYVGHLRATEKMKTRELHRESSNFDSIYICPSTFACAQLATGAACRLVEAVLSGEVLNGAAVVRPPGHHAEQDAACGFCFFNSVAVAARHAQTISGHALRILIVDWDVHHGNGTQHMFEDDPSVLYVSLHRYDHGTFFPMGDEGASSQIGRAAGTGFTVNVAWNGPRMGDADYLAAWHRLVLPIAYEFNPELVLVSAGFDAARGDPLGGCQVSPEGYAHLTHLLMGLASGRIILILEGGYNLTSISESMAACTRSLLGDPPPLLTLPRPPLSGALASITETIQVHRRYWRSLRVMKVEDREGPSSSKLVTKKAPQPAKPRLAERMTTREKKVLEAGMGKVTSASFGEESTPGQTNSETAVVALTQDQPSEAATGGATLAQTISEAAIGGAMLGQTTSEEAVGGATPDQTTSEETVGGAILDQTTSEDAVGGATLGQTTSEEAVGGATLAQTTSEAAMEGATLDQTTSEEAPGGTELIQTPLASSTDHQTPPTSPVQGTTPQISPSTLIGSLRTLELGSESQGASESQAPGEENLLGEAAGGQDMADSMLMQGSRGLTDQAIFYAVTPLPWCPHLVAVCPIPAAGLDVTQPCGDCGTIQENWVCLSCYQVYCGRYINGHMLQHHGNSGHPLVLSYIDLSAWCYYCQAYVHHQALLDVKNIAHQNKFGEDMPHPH
Test: HDAC6 enzyme activity inhibition (HDAC Fluorimetric Drug Discovery Kit)
Type: biochemical
Conditions: human recombinant HDAC6; IC50 calculated with GraphPad Prism
compounds and their reported IC50

>  <Chemical structure>
Fc1cc(-c2nnc(C(F)F)o2)ccc1Cn1cc(-c2ccc3[nH]ccc3c2)nn1

>  <IC50, nM>
16.7

$$$$
>  <Chemical structure>
Fc1cc(-c2nnc(C(F)F)o2)ccc1Cn1cc(-c2ccc(CNC3CCC3)cc2)nn1

>  <IC50, nM>
13.5

$$$$
>  <Chemical structure>
Fc1cc(-c2nnc(C(F)F)o2)ccc1Cn1cc(-c2ccc3c(c2)CN(C2COC2)CC3)nn1

>  <IC50, nM>
41.3

$$$$
>  <Chemical structure>
FC(F)c1nnc(-c2ccc(Cn3cc(-c4cccc(C5CCN(C6COC6)CC5)c4)nn3)nc2)o1

>  <IC50, nM>
22.9

$$$$
>  <Chemical structure>
FC(F)c1nnc(-c2ccc(Cn3cc(-c4ccc5c(CN6CCOCC6)c[nH]c5c4)nn3)cc2)o1

>  <IC50, nM>
16.5

$$$$
>  <Chemical structure>
CC(C)(C)OC(=O)N1CCC(F)(c2cn(Cc3ccc(-c4nnc(C(F)F)o4)cn3)nn2)CC1

>  <IC50, nM>
86.9

$$$$
>  <Chemical structure>
FC(F)c1nnc(-c2ccc(Cn3cc(-c4ccc5c(CN6CCCC6)c[nH]c5c4)nn3)nc2)o1

>  <IC50, nM>
6.5

$$$$
